# Test system: LNCaP tumor-bearing CB17-SCID mice
# assayText: Biodistribution studies 24 h p.i.
# Format: in vivo
# experimentalSetup: 177Lu-labelled, mean±SD, n=4-5
testReadout: biodistribution: bone (% ID/g)
Quick reminder: number only, in % ID/g, skip the unit.

- compound: "O=C(O)CC[C@H](NC(=O)N[C@@H](CCCCNC(=O)[C@H](Cc1ccc2ccccc2c1)NC(=O)[C@H]1CC[C@H](CNC(=O)CN2CCN(CC(=O)O)CCN(CC(=O)O)CCN(CC(=O)O)CC2)CC1)C(=O)O)C(=O)O [PSMA-617, reference compound]"
  testReadout: "biodistribution: bone"
  units: "% ID/g"
  measuredResult: 0.03
- compound: "CC(C)(C)[Si](O)(c1ccc(C(=O)NC[C@@H](NC(=O)CC[C@@H](C(=O)O)N2CCN(CC(=O)O)CCN(CC(=O)O)CCN(CC(=O)O)CC2)C(=O)N[C@H](CCCCNC(=O)CCC(=O)NCCC[C@@H](NC(=O)CC[C@H](NC(=O)N[C@@H](CCC(=O)O)C(=O)O)C(=O)O)C(=O)O)C(=O)O)cc1)C(C)(C)C"
  testReadout: "biodistribution: bone"
  units: "% ID/g"
  measuredResult: 0.01
- compound: "O=C(O)CC[C@H](NC(=O)N[C@@H](CCCCNC(=O)CCCCCCC(=O)NCCCC[C@@H](NC(=O)[C@@H](Cc1ccccc1)NC(=O)[C@@H](Cc1ccc(O)c(I)c1)NC(=O)CCC(C(=O)O)N1CCN(CC(=O)O)CCN(CC(=O)O)CCN(CC(=O)O)CC1)C(=O)O)C(=O)O)C(=O)O (some centres unmarked) [PSMA I&T, reference compound]"
  testReadout: "biodistribution: bone"
  units: "% ID/g"
  measuredResult: 0.01
- compound: "CC(C)(C)[Si](O)(c1ccc(C(=O)N[C@H](CCC(=O)NC[C@@H](NC(=O)CC[C@@H](C(=O)O)N2CCN(CC(=O)O)CCN(CC(=O)O)CCN(CC(=O)O)CC2)C(=O)NCCCCCC(=O)NCCC[C@@H](NC(=O)CC[C@H](NC(=O)N[C@@H](CCC(=O)O)C(=O)O)C(=O)O)C(=O)O)C(=O)O)cc1)C(C)(C)C"
  testReadout: "biodistribution: bone"
  units: "% ID/g"
  measuredResult: 0.02
- compound: "CC(C)(C)[Si](O)(c1ccc(C(=O)NC[C@@H](NC(=O)CC[C@@H](C(=O)O)N2CCN(CC(=O)O)CCN(CC(=O)O)CCN(CC(=O)O)CC2)C(=O)N[C@H](CO)C(=O)NCCC(=O)NCCC(=O)NCCC[C@@H](NC(=O)CC[C@H](NC(=O)N[C@@H](CCC(=O)O)C(=O)O)C(=O)O)C(=O)O)cc1)C(C)(C)C"
  testReadout: "biodistribution: bone"
  units: "% ID/g"
  measuredResult: 0.02
- compound: "CC(C)(C)[Si](O)(c1ccc(C(=O)NC[C@@H](NC(=O)CC[C@@H](C(=O)O)N2CCN(CC(=O)O)CCN(CC(=O)O)CCN(CC(=O)O)CC2)C(=O)NCC(=O)N[C@@H](CCCCNC(=O)CCC(=O)NCCC[C@@H](NC(=O)CC[C@H](NC(=O)N[C@@H](CCC(=O)O)C(=O)O)C(=O)O)C(=O)O)C(=O)O)cc1)C(C)(C)C"
  testReadout: "biodistribution: bone"
  units: "% ID/g"
  measuredResult: 0.03

Form: compound = CC(C)(C)[Si](F)(c1ccc(C(=O)NC[C@@H](NC(=O)CN2CCN(CC(=O)O)CCN(CC(=O)O)CCN(CC(=O)O)CC2)C(=O)N[C@H](CCCCNC(=O)CCC(=O)NCCC[C@@H](NC(=O)CC[C@H](NC(=O)N[C@@H](CCC(=O)O)C(=O)O)C(=O)O)C(=O)O)C(=O)O)cc1)C(C)(C)C [rhPSMA-10, reference compound] ; biodistribution: bone = 0.02

biodistribution: bone reading for CC(C)(C)[Si](F)(c1ccc(C(=O)NC[C@@H](NC(=O)CC[C@@H](C(=O)O)N2CCN(CC(=O)O)CCN(CC(=O)O)CCN(CC(=O)O)CC2)C(=O)N[C@H](CCCCNC(=O)CCC(=O)NCCC[C@@H](NC(=O)CC[C@H](NC(=O)N[C@@H](CCC(=O)O)C(=O)O)C(=O)O)C(=O)O)C(=O)O)cc1)C(C)(C)C [rhPSMA-7.3, reference compound] : 0.02
